system: EGFR recombinant protein (Sino Biological 10001-H08H) (human, UniProt P00533 25-645)
experiment-description: ELONA; Binding buffer: serum-free DMEM + 100 ug/mL tRNA; aptamers denatured 95 C 5 min, snap cooled on ice 10 min; ELONA 1 h (temperature not given); flow cytometry Kd
recorded-conditions: protein: commercial; label: 5'-biotin (ELONA)
endpoint: pKd
Keep it numeric: pKd is minus log10 of the concentration in mol/L.

Q. For GCCUUAGUAACGUGCUUUGAUGUCGAUUCGACAGGAGGC (XNA, 2'-F on all C and U; A and G are RNA) [CL-4] , what is its reported pKd?
A. 7.88
